Test system: MDA-MB-231 breast
Test: NCI tumour cell line growth inhibition, 48 h; in the data active = GI50 below about 0.43 µM; inactive = the rest
Outcomes: Y for active, N for inactive

compound=Cc1cc(Br)c(NC(=O)c2c(-c3c(Cl)cccc3Cl)noc2C)c(Br)c1 assay_system="MDA-MB-231 breast" class_name=N
compound=S=C1SCN(Cc2ccccc2)CN1Cc1ccco1 assay_system="MDA-MB-231 breast" class_name=N
compound=Nc1nccc(-c2c(-c3ccc(F)cc3)nn3cc(C(F)(F)F)ccc23)n1 assay_system="MDA-MB-231 breast" class_name=N
compound=[O]=[V]([OH])([OH])[OH] assay_system="MDA-MB-231 breast" class_name=N
compound=COc1ccc(-c2[nH]c3ccc(OC)cc3c2C=C(C#N)C#N)cc1 assay_system="MDA-MB-231 breast" class_name=N
compound=Cc1cc(Cl)nc(N(CCNc2ccnc3cc(Cl)ccc23)Cc2ccco2)n1 assay_system="MDA-MB-231 breast" class_name=N
compound=C=CCN(CC=C)C(=O)c1cc(C)nc2c1c(=O)n(-c1ccccc1)c(=O)n2CCCN1CCN(c2ccccc2OC)CC1 assay_system="MDA-MB-231 breast" class_name=N
compound=COCCN(CCOC)c1nc(-c2ccccc2)nc2ccccc12 assay_system="MDA-MB-231 breast" class_name=N
compound=O=C(O)CN(CCN(CC(=O)O)CC(=O)O)CC(=O)O.[Mn+2] assay_system="MDA-MB-231 breast" class_name=N
compound="Nc1nc(=S)c2ncn(C3OC(COP(=O)(O)O)C(O)C3O)c2[nH]1 (configuration not stated)" assay_system="MDA-MB-231 breast" class_name=N
compound=O=C(c1cccs1)c1c(C(F)(F)F)n([O-])c2cc(Cl)c(Cl)cc2[n+]1=O assay_system="MDA-MB-231 breast" class_name=N
compound=COc1cc(-c2nccc3[nH]c(-c4ccc5cc[nH]c5c4)nc23)cc(OC)c1OC assay_system="MDA-MB-231 breast" class_name=Y

* * *

System: HT29 colon
Test: NCI tumour cell line growth inhibition, 48 h
Quantity: TGI

compound=CCCCCC/C=C\CCCCCCCCC(=O)c1cccc(OC)c1OC result="> 100 µM"
compound=c1cc(-c2ccc(-c3ccsc3)s2)cs1 result="> 100 µM"
compound="CCN(/C=C1/C(=O)C(c2ccccc2)N(c2ccccc2)C1=O)CC (centres undefined)" result="> 10 µM"
compound=COC(=O)[C@@H]1[C@@H]2NC(=S)N[C@@]1(C)Oc1ccccc12 result="> 100 µM"

* * *

System: UACC-257 melanoma
Assay: NCI tumour cell line growth inhibition, 48 h
Quantity: TGI

compound=O=C1CC(c2ccc(Cl)cc2)=Nc2ccccc2N1 assay_system="UACC-257 melanoma" result="> 100 µM"
compound="C=C1CC[C@@H](CCC2CCC3(OC2)O[C@]2(O)CC[C@@]3(C)OC2(C)C)C(C)(C)[C@H]1C/C=C1\\CCOC1=O (stereo not given in full)" assay_system="UACC-257 melanoma" result="> 67.6 µM"
compound=COc1cc(OC)c(OC)cc1/C=C/c1nc2ccccc2s1 assay_system="UACC-257 melanoma" result="> 100 µM"
compound="C=CCNC(=O)C(C)C1CCC2(C)C=CC(=O)C(C)=C2C1O (stereo not given)" assay_system="UACC-257 melanoma" result="> 100 µM"
compound="CCCC(=O)CC(C)C(=O)C(=O)NC12CC3CC(CC(C3)C1)C2 (stereo not given)" assay_system="UACC-257 melanoma" result="> 100 µM"
compound=Cc1nc2c(sc3nc4c(cc32)CCC4)c(=O)o1 assay_system="UACC-257 melanoma" result="> 100 µM"
compound=O=C(NCCN(CCNC(=O)c1cccc(O)c1O)CCNC(=O)c1cccc(O)c1O)c1cccc(O)c1O assay_system="UACC-257 melanoma" result="> 100 µM"
compound=CCOC(=O)C1S(=O)(=O)OCCOS1(=O)=O assay_system="UACC-257 melanoma" result="> 100 µM"
compound="Cc1ccccc1C(CCCO)C(=O)O (stereo not given)" assay_system="UACC-257 melanoma" result="> 100 µM"
compound=CC(=O)c1ccc(N=NN2CCCC2)cc1 assay_system="UACC-257 melanoma" result="> 100 µM"
compound=COC(=O)[C@H](Cc1ccccc1)NC(=O)c1ccc(CNC(=O)/C=C/c2csc(-c3ccccc3)n2)cc1 assay_system="UACC-257 melanoma" result="7.72 µM"
compound=CCCCCCCCCCCCCCNC(=O)Nc1ccc(Cl)c(Cl)c1 assay_system="UACC-257 melanoma" result="11.3 µM"
compound=C=C(CN1CCc2[nH]c3ccc(F)cc3c2C1)c1ccc(C(=O)Nc2ccccc2N)cc1 assay_system="UACC-257 melanoma" result="2.71 µM"
compound="CC(=O)Nc1ccc(C2CC(c3ccc([N+](=O)[O-])cc3)=Nc3ccccc3S2=O)cc1 (stereo not given)" assay_system="UACC-257 melanoma" result="95.3 µM"
compound="COC12C(COC(=O)NCCO)C3=C(C(=O)C(C)=C(N)C3=O)N1CC1NC12 (stereo not given)" assay_system="UACC-257 melanoma" result="238 µM"

* * *

Tested on: BT-549 breast
Test: NCI tumour cell line growth inhibition, 48 h
Where a SMILES comes first, the peptide text is derived from it. [ ]: non-standard residue; d: D form. The star is where a group is joined. ξ: configuration not given here. ξF = NC(Cc1ccccc1)C(=O)O; Cbz = O=C(OCc1ccccc1)*
Property: TGI; scope: individual molecules
Quantity: TGI

molecule=CN1C(=O)CC(=O)N1/C(=C/c1ccccc1)c1ccccc1 result="> 100 µM"
molecule="Cc1ccc(OCC2OC(n3cnc4c(Cl)nc(Nc5cc(Cl)cc(Cl)c5)nc43)CC2Oc2ccc(C)cc2)cc1 (stereo not given)" result="> 100 µM"
molecule=COCCN(Cc1ccc(F)cc1)c1ccc(CO)c(Cl)c1 result="> 100 µM"
molecule="Cc1cnc(C(=O)NNc2nc3sc4c(c3c(=O)[nH]2)C(C)CCC4)cn1 (stereo not given)" result="> 100 µM"
molecule=O=C(O)CN(CCN(CC(=O)O)CC(=O)O)CC(=O)O.[Mn+2] result="> 100 µM"
molecule=C=CCN(CC=C)C(=O)c1cc(C)nc2c1c(=O)n(-c1ccccc1)c(=O)n2CCCN1CCN(c2ccccc2OC)CC1 result="> 50 µM"
molecule="NC(N)=NCCCC(NCc1c2ccccc2nc2ccccc12)C(=O)O (stereo not given)" result="> 100 µM"
molecule="CC(SC(=S)N1CCOCC1)C(=O)Nc1nnc(-c2ccc(Cl)cc2)o1 (stereo not given)" result="> 100 µM"
molecule="NC1=NC2(COC(c3ccccc3)(c3ccccc3)c3ccccc3)OC(COC(c3ccccc3)(c3ccccc3)c3ccccc3)C(O)C2O1 (stereo not given)" result="> 100 µM"
molecule="COc1ccccc1C1c2cc3c(cc2OC2(OC)COC(=O)C12)OCO3 (stereo not given)" result="> 100 µM"
molecule="Cc1ccc(S(=O)(=O)NCCCCC(N)C(=O)O)cc1 (stereo not given)" result="> 100 µM"
molecule=CCCCCC/C=C\CCCCCCCCC(=O)c1cccc(OC)c1OC result="> 100 µM"
molecule=COC(=O)[C@H](Cc1ccccc1)NC(=O)c1ccc(CNC(=O)/C=C/c2csc(-c3ccccc3)n2)cc1 result="> 100 µM"
molecule=Nc1nccc(-c2c(-c3ccc(F)cc3)nn3cc(C(F)(F)F)ccc23)n1 result="> 25 µM"
molecule=COc1ccc(/C(Nc2ccccc2)=C(\CCl)c2ccccc2)cc1OC result="> 100 µM"
molecule="CSc1nc2nc(-c3ccccc3)c(C)c-2c2n1C(C)C(=O)N2 (stereo not given)" result="> 100 µM"
molecule=COCCOC1=C(Cl)C(=O)c2ccccc2C1=O result="10.6 µM"
molecule="CC(N)(CC(O)(C(F)(F)Cl)C(F)(F)Cl)C(=O)O (stereo not given)" result="> 10 µM"
molecule=S=C1SCN(Cc2ccccc2)CN1Cc1ccco1 result="12.3 µM"
molecule=O=C(CCc1cc(O)cc(O)c1)NCCc1cc(O)cc(OCc2ccccc2)c1 result="66.1 µM"
molecule=Cc1nc2sc3cccc(Cl)c3n2c(=O)c1N=Nc1ccc(Cl)cc1 result="> 100 µM"
molecule="C[C@H]1CC[C@@]2(OC1)O[C@H]1C[C@H]3[C@@H]4CC[C@@H]5C[C@@H](OC6OC(CO)C(O)C(O)C6OC6OC(CO)C(O)C(O)C6O)CC[C@]5(C)[C@H]4CC[C@]3(C)[C@H]1[C@@H]2C (stereo not given in full)" result="4.1 µM"
molecule=COc1ccc(-c2nc3ccc(Cc4ccc5nc(-c6ccc(OC)cc6)[nH]c5c4)cc3[nH]2)cc1 result="2.54 µM"
molecule=CC(=O)c1ccc(Nc2c3c(nc4ccccc24)CCCC3)cc1 result="> 41.3 µM"
molecule="CCOC(=O)CNC(=O)C(Cc1ccccc1)NC(=O)OCc1ccccc1 (stereo not given) (Cbz-[ξF]-Gly-OEt)" result="> 100 µM"
molecule="CCC(c1ccccc1)c1noc(CCN(CC)CC)n1 (stereo not given)" result="> 100 µM"
molecule=CC(C)[C@@H]1CC[C@]2(CO2)[C@@H]2C(=O)OCC(C(=O)O)=C[C@H]21 result="0.851 µM"
molecule="O=C(NCCC1CNc2ccccc21)OCc1ccccc1 (stereo not given)" result="> 100 µM"
molecule=[O]=[V]([OH])([OH])[OH] result="> 100 µM"
molecule="CCN(/C=C1/C(=O)C(c2ccccc2)N(c2ccccc2)C1=O)CC (stereo not given)" result="> 10 µM"

Where do the numbers come from? From PubChem BioAssay (NCI).
